# key: entry, value: Population Fragmented Nuclei (%)
tested on: Fibroblast; experiment: Multiplex assay against human fibroblast; assay type: toxicity, cell-based; details: 48 h, 10 µM, compound concentration 10 uM, replicate 1
Express your answer in %, writing the number without its unit.

Data request: Tell me measured Population Fragmented Nuclei (%) for COc1cc(Nc2ncc3c(n2)-c2ccc(Cl)cc2C(c2c(F)cccc2OC)=NC3)ccc1C(=O)O please.
Data returned: 38

Data request: Tell me measured Population Fragmented Nuclei (%) for O=C(O)CCC/C=C\CC1C(O)CC(O)C1/C=C/C(O)COc1cccc(Cl)c1 (centres undefined) please.
Data returned: 25

Data request: Tell me measured Population Fragmented Nuclei (%) for C[C@H](NC(=O)CNC(=O)c1cccc(Cl)c1)c1ccccc1 please.
Data returned: 15

Data request: Tell me measured Population Fragmented Nuclei (%) for COc1ccc2c(c1OCc1ccccc1)C[C@@H](C(=O)O)N(C(=O)C(c1ccccc1)c1ccccc1)C2 please.
Data returned: 15

Data request: Tell me measured Population Fragmented Nuclei (%) for Nc1nc(CC(=O)Nc2ccc(CCNC[C@H](O)c3ccccc3)cc2)cs1 please.
Data returned: 18

Data request: Tell me measured Population Fragmented Nuclei (%) for Nc1nc(-c2ccco2)c2cnn(Cc3ccccc3F)c2n1 please.
Data returned: 25

Data request: Tell me measured Population Fragmented Nuclei (%) for CN1CCC(C(=O)c2cccc(NC(=O)c3c(F)cc(F)cc3F)n2)CC1 please.
Data returned: 17

Data request: Tell me measured Population Fragmented Nuclei (%) for Cc1ccc(OCC(O)C(C)NC(C)C)c2c1CCC2.Cl (centres undefined) please.
Data returned: 35

Data request: Tell me measured Population Fragmented Nuclei (%) for N[C@](CC1c2ccccc2Oc2ccccc21)(C(=O)O)[C@H]1C[C@@H]1C(=O)O please.
Data returned: 14
